Assay: Plasma pharmacokinetic study
Assay type: in vivo, CD-1 mice
Conditions: male, CD-1, mouse, plasma, iv, 5 mg/kg, iv 5 mg/kg
Value Type: half-life (min)
Number only, in min; omit the unit.

Would you mind telling me what half-life value was observed for CC(C)=CCOc1cc(OCCCNC(=N)N)cc2oc3cc(OCCCNC(=N)N)ccc3c(=O)c12 ? 28.8

* * *

Assay: Plasma pharmacokinetic study
Type: in vivo, CD-1 mice
Conditions: male, CD-1, mouse, plasma; IV 5 mg/kg, 0.5 hr
Value Type: concentration at 0.5 h (ng/mL)
Number only, in ng/mL; omit the unit.

Would you mind telling me what concentration at 0.5 h value was observed for CC(C)=CCOc1cc(OCCCNC(=N)N)cc2oc3cc(OCCCNC(=N)N)ccc3c(=O)c12 ? 3630
